Origin of values: patent US20230365662A1

- measured.on: HRgpA-6H (Porphyromonas gingivalis) (UniProt P28784)
- test.summary: ELISA on coated HRgpA-6H
# OD450nm values compiled below

KB001 mouse Fab FASEBA VH K64S (Fab, V domains shown) VH: EVQLKQSGPGLVAPSQSLSITCTVSGFSLSIYSVHWVRQPPGKGLEWLGMIWGGGSSDYNSALSSRLSISKDNSKSQVFLKMNSLQTDDTAMYYCARNGNFYAMDYWGQGTSVTVSS VL: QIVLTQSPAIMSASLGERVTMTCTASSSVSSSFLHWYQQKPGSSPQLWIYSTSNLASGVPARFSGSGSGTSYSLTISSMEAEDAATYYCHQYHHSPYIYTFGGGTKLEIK yielded OD450nm of 0.808

KB001 mouse Fab FASEBA VH H35V (Fab, V domains shown) VH: EVQLKQSGPGLVAPSQSLSITCTVSGFSLSIYSVVWVRQPPGKGLEWLGMIWGGGSSDYNSALKSRLSISKDNSKSQVFLKMNSLQTDDTAMYYCARNGNFYAMDYWGQGTSVTVSS VL: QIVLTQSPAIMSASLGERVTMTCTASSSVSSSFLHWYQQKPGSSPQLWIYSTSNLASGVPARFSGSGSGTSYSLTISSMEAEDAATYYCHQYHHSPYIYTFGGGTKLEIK yielded OD450nm of 0.706

In the following, a different binder is considered.
KB001 mouse Fab FASEBA VH I51Q/M92I (Fab, V domains shown) VH: EVQLKQSGPGLVAPSQSLSITCTVSGFSLSIYSVHWVRQPPGKGLEWLGMQWGGGSSDYNSALKSRLSISKDNSKSQVFLKMNSLQTDDTAIYYCARNGNFYAMDYWGQGTSVTVSS VL: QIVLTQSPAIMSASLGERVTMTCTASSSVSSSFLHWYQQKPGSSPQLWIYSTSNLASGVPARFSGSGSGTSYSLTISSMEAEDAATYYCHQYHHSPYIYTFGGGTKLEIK yielded OD450nm of 0.722
